assay_method_text: Acute preclinical toxicity in mice (OECD 423)
Assay type: in vivo, mice (Mus musculus)
run_parameters: female, Swiss albino, mouse, in vivo, ip, estimated, OECD 423, read-out: LD50 (lethal dose 50%)
recorded_metric: LD50

Which LD50 is listed for COc1ccc2nc3cc(Cl)ccc3c(Nc3sc4c(c3C#N)CCCCC4)c2c1 ?
> 5000 mg/kg

====

assay_method_text: Fish embryo acute toxicity (FET) test
Set-up: species or system zebrafish (Danio rerio)
run_parameters: wild-type, zebrafish, in vivo, zebrafish embryos, 96 h exposure; read-out: EC50 reduction in larval length
recorded_metric: EC50 at 96 h
Please state the value followed by its unit.

// returns reported EC50 at 96 h for input COc1ccc2nc3cc(Cl)ccc3c(Nc3sc4c(c3C#N)CCCCC4)c2c1
126 µM

====

assay_method_text: Fish embryo acute toxicity (FET) test
Design: species or system zebrafish (Danio rerio)
run_parameters: wild-type, zebrafish, in vivo, zebrafish embryos, 96 h exposure; read-out: EC50 spinal deformation
recorded_metric: EC50 at 96 h (µM)
Output spec: scalar in µM, unitless text.

# EC50 at 96 h lookup, item COc1ccc2nc3cc(Cl)ccc3c(Nc3sc4c(c3C#N)CCCCC4)c2c1
172

====

assay_method_text: Fish embryo acute toxicity (FET) test
Set-up: species or system zebrafish (Danio rerio)
run_parameters: wild-type, in vivo; zebrafish embryos, 96 h exposure; read-out: LC50 (median lethal concentration)
recorded_metric: LC50 at 96 h

Would you mind telling me what LC50 at 96 h value was observed for COc1ccc2nc3cc(Cl)ccc3c(Nc3sc4c(c3C#N)CCCCC4)c2c1 [ACS03] ?
> 1000 µM
